// provenance: ChEMBL document CHEMBL1126708

target: O-acyltransferase (Oryctolagus cuniculus); test: Acyl coenzyme A:cholesterol acyltransferase (ACAT), inhibition by incubation with [1-14C]oleolyl-CoA and intestinal microsomes isolated from intestinal mucosa of cholesterol-fed rabbits
Sequence (G1SFD9 1-524): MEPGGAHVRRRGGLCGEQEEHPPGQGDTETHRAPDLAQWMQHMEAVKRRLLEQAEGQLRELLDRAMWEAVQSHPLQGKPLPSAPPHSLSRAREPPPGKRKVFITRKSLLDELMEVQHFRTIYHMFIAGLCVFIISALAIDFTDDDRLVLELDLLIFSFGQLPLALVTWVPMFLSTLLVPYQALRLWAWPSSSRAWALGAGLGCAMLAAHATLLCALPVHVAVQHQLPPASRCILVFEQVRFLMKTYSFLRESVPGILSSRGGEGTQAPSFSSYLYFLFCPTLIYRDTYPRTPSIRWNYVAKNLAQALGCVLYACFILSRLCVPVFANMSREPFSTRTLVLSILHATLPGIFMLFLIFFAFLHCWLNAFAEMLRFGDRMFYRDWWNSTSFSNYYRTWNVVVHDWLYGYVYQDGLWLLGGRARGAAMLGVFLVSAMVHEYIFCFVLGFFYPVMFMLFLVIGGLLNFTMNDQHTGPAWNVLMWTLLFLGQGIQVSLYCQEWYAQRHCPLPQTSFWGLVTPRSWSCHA
Reported Endpoint: IC50

Known results for molecules:
{"Cpd Smiles": "CCCCCCCC/C=C\\CCCCCCCC(=O)Oc1c(C)cccc1C", "IC50": "> 10 µM"}
{"Cpd Smiles": "CCCCCCCC/C=C\\CCCCCCCCNC(=O)Nc1ccccc1", "IC50": "> 5 µM"}

Let's switch to this molecule now.
**Q:** Data request, read-out IC50, for `CCCCCCCC/C=C\CCCCCCCC(=O)c1c(OC)cc(OC)cc1OC`
**A:** > 50 µM
